system: HCT-15 colon; assay: NCI tumour cell line growth inhibition, 48 h
MEASURED_PROPERTY: TGI

Record excerpt, results attached:
COMPOUND	TGI
COC(=O)NC1C(C)OC(OC2C/C=C(/C)C3C=CC4C(OC5CC(OC6CC(OC7CC(O)C(O)C(C)O7)C(OC7CC(O)C(OC)C(C)O7)C(C)O6)C(O)C(C)O5)C(C)CC(C)C4C3(C)/C(O)=C3\C(=O)OC4(CC(C)C(CO)=CC4/C=C\2C)C3=O)CC1(C)[N+](=O)[O-] (stereo not drawn)	36.4 µM
CCCCC(C(=O)CCC(=O)Nc1ccc(Cl)cc1)C(=O)C(C)C (stereo not drawn)	> 100 µM

For the compound `COC(=O)c1ccc2c(C(=Nc3ccc(N(C)C(=O)CN4CCN(C)CC4)cc3)c3ccccc3)c(O)[nH]c2c1` , report TGI.
> 100 µM
